System: MS2 coat protein
Assay: apparent KD of MS2 coat protein; higher = weaker reporter binding
Settings: Eterna round: R107; input ligand: arginine 13.2 mM
Tick satisfied if apparent KD of MS2 coat protein is 20 nM or greater. Tick not satisfied if apparent KD of MS2 coat protein is less than 20 nM.

Q: # bool: apparent KD of MS2 coat protein of AUUAAUUGUCGUGAUACCAGACUUACAUGAGGAUCACCCAUGUUACUUAAGAUUUUUGUUGUCCCUUGGCAGCACUUUUUAAUUA [JR_Nu_ExcTheophyB_Sub024] >= 20 nM
Result: satisfied

Next:
Q: # bool: apparent KD of MS2 coat protein of CAAUAUAUAACGGCCGCCACUUACUCAUGAGGUAACAACAUGAGGAUCACCCAUGUUUGAGGAUCAAGGACCGGGUUAUAUAUUG [AstrosSSTry#19] >= 20 nM
Result: satisfied

Q: # bool: apparent KD of MS2 coat protein of AUACCUAUUGAGUCGUGUUUCUAUUCAGAUACCAGACUUUUCGUUGUCCCUUGGCAGCUGUUUUACAUGAGGAUCACCCAUGUUG [JR_ExcTheophyA_Sub006] >= 20 nM
Result: not satisfied

Q: # bool: apparent KD of MS2 coat protein of UUGCCCAGUACGGCCGCCACUGUGUGCAGGGAGCCCAGGUCCACAUGAGGAUCACCCAUGUACAACAGGACCGGGUACUUGCAAU [Usdizaqu] >= 20 nM
Result: not satisfied

====

Test system: MS2 coat protein
Assay: apparent KD of MS2 coat protein; designed switch direction (-1 OFF switch, 1 ON switch): -1; higher = weaker reporter binding
Details: Eterna round: R95; input ligand: microRNA oligo, concentration not stated
measurement-type: apparent KD of MS2 coat protein (nM)
Output spec: scalar in nM, unitless text.

Recorded results for 8 sequences are shown here.
Q: Give apparent KD of MS2 coat protein (MS2 coat protein) of the following sequence: CCGAGGUAGCGGUCCUAUGACAUGAGGAUCACCCAUGUACCUCGCUACGAGCUUUUUGCUCAUCUUAUAAUUCUCGG [Atriat] (puzzle: Sensor v3, turn-off variant 1)
Result: 26.1

Q: Give apparent KD of MS2 coat protein (MS2 coat protein) of the following sequence: GCAUCCAAUGUGAGGAUAUACCUCUGGAUACAGAGGUAGAAGGCACAUGAGGAUCACCCAUGUUACUAGGAUGC [Fiskers BMX 4 - 36] (puzzle: Brourd's mod of Exclusion 4)
Result: 19.3

Q: Give apparent KD of MS2 coat protein (MS2 coat protein) of the following sequence: GACUGCUGAGGAUAUACAUGAGGAUCACCCAUGUGCUUCAGCUAGGAGACUAGCAUUGGUAGAAGGUAGUAGUC [LRO-Excl3-03] (puzzle: Exclusion 3)
Result: 10.3

Q: Give apparent KD of MS2 coat protein (MS2 coat protein) of the following sequence: AAACCGCAAGGAUAUUGUGGCGCUGACAUGAGGAUCACCCAUGUGGUGCUAGUCCCGCUGCGAGAAGGUGUGUAAA [Enesedrave] (puzzle: Exclusion 5)
Result: 12.3

Q: Give apparent KD of MS2 coat protein (MS2 coat protein) of the following sequence: AGGUAACAUGAGGAUCACCCAUGUCAGGAUAUCAGGAAGAUUAGAAUAGAGUAGAGGAUGAGAAGGGACUAUAU [Excluse me! 18- Jieux - Exclusion 1] (puzzle: Exclusion 1)
Result: 31.7

Q: Give apparent KD of MS2 coat protein (MS2 coat protein) of the following sequence: CAGGACAGAGGAUAUACAUAGAUACAGAUUCAUGUAGAACUACAUGAGGAUCACCCAUGUAGAAGGCUGUCCUG [Fiskers Ex 2 - 3] (puzzle: Exclusion 2)
Result: 27.8

Q: Give apparent KD of MS2 coat protein (MS2 coat protein) of the following sequence: CCUUUGUCAGGAUAUCAGAACGCGCUCGUAGGGAGCGCGAAUGAGAAGGGACAUGAGGAUCACCCAUGUAAAGA [Soedes] (puzzle: Exclusion 4)
Result: 74.3

Q: Give apparent KD of MS2 coat protein (MS2 coat protein) of the following sequence: GGAUCGAGUGUGAGGAUAUGCUGGUCCUUGGAUCAGCAGAAGGCACAUGAGGAUCACCCAUGUGAAGACGGUCC [JL bmx4 3.16] (puzzle: Brourd's mod of Exclusion 4)
Result: 24.7

Next:
Q: Give apparent KD of MS2 coat protein (MS2 coat protein) of the following sequence: AAUAACAGAGGAUAUACUAUUUUAUGUGUUUGUUGUUUUAAACAUGAGGAUCACCCAUGUAGAAGGCUGAGUAA [JMF 33] (puzzle: Exclusion 2)
Result: 21.8

Q: Give apparent KD of MS2 coat protein (MS2 coat protein) of the following sequence: GGUGCGUUUGUGAGGAUAUGCUGGUCCUUGGAUCAGCAGAAGGCACAUGAGGAUCACCCAUGUGGUGUCGUUCC [salish99_Bmod_Ex4_037] (puzzle: Brourd's mod of Exclusion 4)
Result: 137

====

Test system: MS2 coat protein
Experiment: apparent KD of MS2 coat protein; designed switch direction (-1 OFF switch, 1 ON switch): -1; higher = weaker reporter binding
Conditions: Eterna round: R95; input ligand: microRNA oligo, concentration not stated
measurement-type: apparent KD of MS2 coat protein (µM)
Output spec: scalar in µM, unitless text.

Recorded results for 2 sequences are shown here.
Q: Which apparent KD of MS2 coat protein value is on record for AAUAACAAGUAGGAUCCUAACAUGAGGAUCACCCAUGUGCUCGUCUUAUAAAGUACUAUCACGAAAGUGAUAGUACA [Sensor 3, v1 - 53] (puzzle: Sensor v3, turn-off variant 1) ?
Result: 0.0642

Q: Which apparent KD of MS2 coat protein value is on record for UUUAAUUUUUUUUUUUUACAAGCUUUUUGCUCGUCUUAUACAUGAGGAUCACCCAUGUAAGUGGGAGGUAAAUUAUC [JMF 76] (puzzle: Sensor v3, turn-off variant 2) ?
Result: 0.201

Next:
Q: Which apparent KD of MS2 coat protein value is on record for AGUACUAACACGAAAGUGUUAGUACAAUAAGCUUGUGAAACAUGAGGAUCACCCAUGUCCUCUUAAGCUCGUCUUAU [salish99_TOv2_r3_047] (puzzle: Sensor v3, turn-off variant 2) ?
Result: 0.329

Q: Which apparent KD of MS2 coat protein value is on record for AGAAGACAUGAGGAUCACCCAUGUAAGGAUAUCGAAGGUAUGAGAGGAAAGAGGUUAACGAGAAGGUACAGGUG [JR_Exclu1_Sub098] (puzzle: Exclusion 1) ?
Result: 0.0741

====

Tested on: MS2 coat protein
Assay: apparent KD of MS2 coat protein, switch ON state; designed switch direction (-1 OFF switch, 1 ON switch): -1; higher = weaker reporter binding
Settings: FMN input: 0 or 200 uM; Eterna round: R93 (includes R88 designs)
apparent KD of MS2 coat protein reference
Output spec: scalar in µM, unitless text.

Q: Give apparent KD of MS2 coat protein (MS2 coat protein) of the following sequence: ACAUCUAGAGGAUAUACAUGGAAAAAAAAAAAAAAAAAACUACAUGAGGAUCACCCAUGUAGAAGGCUAGAUGA [Ex2 Design 192: Random 12]
Result: 0.0404

Q: Give apparent KD of MS2 coat protein (MS2 coat protein) of the following sequence: AAGAAACAUGAGGAUCACCCAUGUGAGGAUAUAGAAAAGAAAAGAAAAGAAAGAAGAACUAGAAGGCACAAAGG [Neferkare (IV) Khendu]
Result: 0.0311

Q: Give apparent KD of MS2 coat protein (MS2 coat protein) of the following sequence: AACAGUACAGGAUAUACAUGAGGAUCACCCAUGUGAGAAUUAAGUGGAGUACCACAAAGUAGAAGGGUACUGGA [Mat - Exclusion 3 - JL mod - D4]
Result: 0.0289

Next:
Q: Give apparent KD of MS2 coat protein (MS2 coat protein) of the following sequence: CUCAUGUCAGGAUAUCAGUAGUAAAAAAAUAAAAUUACUACUGAGAAGGGACAUGAGGAUCACCCAUGUAAAAA [EX4 363: Super Stable 63]
Result: 0.0161

Q: Give apparent KD of MS2 coat protein (MS2 coat protein) of the following sequence: AGAAACGUAGGAUAUACAUGAGGAUCACCCAUGUAAAGAAAGAAGGGAGCCACAAGAAGUAGAAGGACGAAGAA [JR_Exc003_Sub004]
Result: 0.0334

Q: Give apparent KD of MS2 coat protein (MS2 coat protein) of the following sequence: AAGAACUCAGGAUAUACAUGAGGAUCACCCAUGUAAAAGAAAGAAAGGGAAAAGAAAAGUAGAAGGGAGAAGAA [Hedjkheperre-setpenre Nesbanebdjed]
Result: 0.0287

Q: Give apparent KD of MS2 coat protein (MS2 coat protein) of the following sequence: AAAAAACAUGAGGAUCACCCAUGUCAGGAUAUCGUAAAAAAAAAAAAAAAAAAAAAUGCGAGAAGGGACUGGAA [exclusion1-cac2]
Result: 0.0869
